The following compounds are listed with their measured pIC50 values.
- targetOfAssay: UniProtKB Q9WJQ1
pIC50: −log10 of the molar value.
readoutType: pIC50

compound="O=C(Nc1ccc(Cl)cc1)OC(CN1CCCc2ccccc21)c1ccc(Cl)cc1 (stereo unspecified)" targetofassay="UniProtKB Q9WJQ1" recordednumber=4.62
compound="CCOC(=O)c1ccccc1NC(=O)OC(CN1CCCc2ccccc21)c1ccc(Cl)cc1 (stereo unspecified)" targetofassay="UniProtKB Q9WJQ1" recordednumber=4.41
compound="O=C(Nc1cccc([N+](=O)[O-])c1)OC(CN1CCCc2ccccc21)c1ccc(Cl)cc1 (stereo unspecified)" targetofassay="UniProtKB Q9WJQ1" recordednumber=4.83
compound="O=C(Nc1ccc(F)cc1)OC(CN1CCCc2ccccc21)c1ccc(Cl)cc1 (stereo unspecified)" targetofassay="UniProtKB Q9WJQ1" recordednumber=4.31
compound="O=C(Nc1ccc([N+](=O)[O-])cc1)OC(CN1CCCc2ccccc21)c1ccc(Cl)cc1 (stereo unspecified)" targetofassay="UniProtKB Q9WJQ1" recordednumber=5.27
compound="Cc1ccccc1NC(=O)OC(CN1CCCc2ccccc21)c1ccc(Cl)cc1 (stereo unspecified)" targetofassay="UniProtKB Q9WJQ1" recordednumber=5.09

The values you see were collected from BindingDB's records for doi:10.1016/j.bioorg.2015.12.005.
